Reported TGI values follow for various molecules
Test system: SNB-19 CNS
Assay: NCI tumour cell line growth inhibition, 48 h

Worked cases, answers included:
# structure.notation, measured.result
records = [
    ("C=C(C)CCN(C(=O)OC(C)(C)C)c1cc(C(C)C)co1", "> 100 µM"),
    ("O=C(/C=C/c1ccc(O)cc1)c1cc(-c2cc(CCC(=O)c3ccc(O)cc3O)ccc2O)c(O)cc1O", "> 50 µM"),
    ("CC(=O)c1sc2n(C)c(=O)c3ccccc3[n+]2c1C", "> 100 µM"),
]

Look up TGI for this molecule: "NC(=S)N/N=C/c1ccc(OC(=O)COc2ccccc2)cn1"
> 100 µM

Look up TGI for this molecule: "C=C1[C@@H](O)C[C@H]2C(C)(C)C[C@H](Cl)C[C@]2(C)[C@H]1C[C@H](O)[C@H]1CC(=O)NC1=O"
0.241 µM

====

Reported GI50 values follow for various compounds
Test system: HCC-2998 colon
Test: NCI tumour cell line growth inhibition, 48 h

Worked cases, answers included:
# compound, measured.result
measured = [
    ("NC(=S)N/N=C/c1ccc(OC(=O)COc2ccccc2)cn1", "8.37 µM"),
    ("CCOc1ccc(NC(=O)c2cc3ccccc3cc2O)cc1", "> 100 µM"),
]

Look up GI50 for this compound: COc1ccc(C2CC(c3cccc(OC)c3)=NN2C(=O)c2cc(OC)c(OC)c(OC)c2)cc1 (configuration not stated)
4.27 µM

Look up GI50 for this compound: "CCCC(CCC)Oc1ccc(CCCC2=C(O)c3ccccc3C(=O)C2=O)cc1"
2.8 µM

Look up GI50 for this compound: "O=C(O)c1cc2cc(O)ccc2[nH]1"
> 100 µM

Look up GI50 for this compound: "O=C(Nc1nc(-c2ccccc2)cs1)c1cc(O)c(O)c(O)c1"
10.1 µM

Look up GI50 for this compound: "CC(C)c1ccc(/C=N/N=C(N)N)cc1"
2.04 µM

====

System: MDA-N
Test: NCI tumour cell line growth inhibition, 48 h
Reported TGI values follow for various compounds

Worked cases, answers included:
# compound, test.system, TGI
data = [
    ("Cc1c(-c2ccccc2)c(C#N)c2nnn(C)c(=O)n12", "MDA-N", "> 100 µM"),
    ("COC(=O)/C=C/C(=O)Nc1cc(Cl)c(Cl)cc1CC(=O)N(C)[C@H]1CCCC[C@@H]1N1CCCC1", "MDA-N", "25.2 µM"),
    ("CC(=O)[C@]12OC(=O)C3=C1[C@H](CC[C@@H]3C)[C@@H](C)C[C@H]2C=C(C)C", "MDA-N", "16.9 µM"),
    ("O=C1/C(=C/c2ccc(OC(=O)c3ccc(Cl)cc3)cc2)CCC/C1=C\\c1ccc(OC(=O)c2ccc(Cl)cc2)cc1", "MDA-N", "> 100 µM"),
    ("COc1ccc2oc(=O)c(-c3csc(-c4ccccc4)n3)cc2c1", "MDA-N", "> 100 µM"),
    ("COC(=O)C1Cc2c([nH]c3ccccc23)-c2[nH]c3ccccc3c2CC(NC(C)=O)C(=O)NCC(=O)NCC(=O)N1 (stereo unspecified)", "MDA-N", "> 100 µM"),
    ("O=C(/C=C/c1ccc(O)cc1)c1cc(-c2cc(CCC(=O)c3ccc(O)cc3O)ccc2O)c(O)cc1O", "MDA-N", "> 50 µM"),
    ("CCOC(=O)CON=c1c2ccccc2ccc2ccccc12", "MDA-N", "> 100 µM"),
]

Look up TGI for this compound: CC1=NN(C(=O)CC(=O)Nc2ccc(Cl)cc2)C(=O)C1N=Nc1ccc(S(=O)(=O)c2ccc(N=NC3C(=O)N(C(=O)CC(=O)Nc4ccc(Cl)cc4)N=C3C)cc2)cc1 (stereo unspecified)
> 100 µM

Look up TGI for this compound: "COc1cc(OC)c2nc(C)c3c(c2c1)OCC3"
> 100 µM

Look up TGI for this compound: "COC(=O)[C@@H]1[C@H](O)[C@H](C)[C@H](O)[C@H](C)/C=C\C=C(C)C(=O)Nc2c(C)c(OC(C)=O)c3c(c2O)C(=O)C(C)=C2OCOC(=C23)C(C)=C[C@@](C)(O)[C@H](O)[C@@H](C)[C@H]1OC(C)=O"
41.9 µM

====

Test system: COLO 205 colon
Test: NCI tumour cell line growth inhibition, 48 h
Binary classification by TGI, with 6 µM as an inclusive lower bound for MET; all other cases are NOT MET.

# molecule, group
records = [
    ("COc1ccc(C2CC(c3cccc(OC)c3)=NN2C(=O)c2cc(OC)c(OC)c(OC)c2)cc1 (stereo not given)", "NOT MET"),
    ("O=c1oc2c(cc1-c1ccccc1)C(O)Oc1ccccc1-2 (stereo not given)", "MET"),
    ("COc1ccccc1Nc1nc2ccccc2c2occc12", "MET"),
    ("O=C(CSc1nc2ccc(I)cc2c(=O)n1Cc1ccccc1)NN1C(=O)CSC1c1ccccc1 (stereo not given)", "MET"),
    ("CCOC(=O)Nc1ccc(C(=O)/C=C/c2ccccc2)cc1", "MET"),
    ("CCP(C)(C)=O", "MET"),
    ("O=C(Nc1cc(C(F)(F)F)cc(C(F)(F)F)c1)Nc1ccc(OCc2nnc(-c3ccc(Cl)cc3)o2)c(F)c1", "NOT MET"),
    ("C[N+]1(C)C/C(=C\\c2ccc(O)cc2)C(=O)/C(=C/c2ccc(O)cc2)C1", "MET"),
]

Would you say CC1=NN(C(=O)CC(=O)Nc2ccc(Cl)cc2)C(=O)C1N=Nc1ccc(S(=O)(=O)c2ccc(N=NC3C(=O)N(C(=O)CC(=O)Nc4ccc(Cl)cc4)N=C3C)cc2)cc1 (stereo not given) shows TGI at minimum 6 µM?
MET

Would you say "CC1(C)Cc2nnsc2C2=C1C(=O)CCS2" shows TGI at minimum 6 µM?
MET

====

Reported GI50 values follow for various molecules
Test system: CCRF-CEM leukemia

# molecule, GI50
measured = [
    ("CCOc1ccc(NC(=O)c2cc3ccccc3cc2O)cc1", "17.9 µM"),
]

I'm curious: which GI50 was measured for "N=C1N=C(N)S/C1=C\c1ccc2ncccc2c1" tested on CCRF-CEM leukemia?
> 25 µM

I'm curious: which GI50 was measured for C=CCN1C(=O)/C(=C/c2ccc(OC)cc2)N=C1SC1OC(COC(C)=O)C(OC(C)=O)C(OC(C)=O)C1OC(C)=O (stereo not drawn) tested on CCRF-CEM leukemia?
21.7 µM

====

Tested on: HOP-62 NSCLC
Experiment: NCI tumour cell line growth inhibition, 48 h
Reported TGI values follow for various molecules

Worked cases, answers included:
# molecule, TGI
measured = [
    ("Cc1cc(C)nc(NS(=O)(=O)c2ccc(Nc3nnc(/C=C/c4c(O)ccc5ccccc45)c(=O)n3N)cc2)n1", "> 100 µM"),
    ("CC(C)(C)OC(=O)NCC(=O)N(CCc1ccc(Cl)c(Cl)c1)CCN1CCCC1", "27.7 µM"),
    ("NC(=NCCO)c1ccc(N2CCCN(c3ccc(C(N)=NCCO)cc3)CC2)cc1", "> 100 µM"),
]

Attention now shifts to the item below.
I'm curious: which TGI was measured for COC1C(O)CC(OC2CC(OC3CC(O[C@@H]4C(=O)c5c(cc6cc(OC7CC(OC8CC(O)C(O)C(C)O8)C(O)C(C)O7)c(C)c(O)c6c5O)C[C@H]4[C@H](OC)C(=O)[C@@H](O)[C@@H](C)O)OC(C)C3O)OC(C)C2O)OC1C (some centres not stated) tested on HOP-62 NSCLC?
3.87 µM

====

Test system: SK-MEL-2 melanoma
Assay: NCI tumour cell line growth inhibition, 48 h
Reported TGI values follow for various compounds

# compound, test.system, readout, measured.result
rows = [
    ("Cc1cccc2cc3cccc(C(=O)NCCN(C)C)c3nc12", "SK-MEL-2 melanoma", "TGI", "1.85 µM"),
]

Attention now shifts to the item below.
I'm curious: which TGI was measured for COC(=O)C1=CO[C@@H](OC2OC(CO)C(O)C(O)C2O)[C@@H]2[C@H](C)[C@@H](O)[C@@H](O)[C@]12O (stereo partly specified) tested on SK-MEL-2 melanoma?
> 100 µM

====

System: HCT-15 colon
Assay: NCI tumour cell line growth inhibition, 48 h
readout: TGI

# molecule, readout, measured.result
data = [
    ("COc1cc2oc(-c3cccc(C(=O)Nc4ccc(C)cc4)c3)cc(=O)c2c(OC)c1OC", "TGI", "> 100 µM"),
    ("[O-]/[N+](=N/c1ncc(-c2ccccc2)cn1)c1ncc(-c2ccccc2)cn1", "TGI", "> 100 µM"),
    ("Oc1cc2c(cc1C(c1ccc3c(c1)OCO3)N1CCN(C(c3ccc4c(c3)OCO4)c3cc4c(cc3O)OCO4)CC1)OCO2 (stereo unspecified)", "TGI", "20.3 µM"),
    ("Cn1ccc2c3c(=O)cc[nH]c3ccc21", "TGI", "> 100 µM"),
    ("N/N=C(/CC(O)(C(F)(F)F)C(F)(F)F)c1ccccc1", "TGI", "> 10 µM"),
]

Attention now shifts to the item below.
Look up TGI for this molecule: NC(=S)N/N=C1\CC(c2ccccc2)Nc2ccccc21 (stereo unspecified)
> 100 µM
